Target: MYC (Homo sapiens)
Construct: endogenous in cells; host or cells: PC3 cells
Sequence (P01106 whole entry): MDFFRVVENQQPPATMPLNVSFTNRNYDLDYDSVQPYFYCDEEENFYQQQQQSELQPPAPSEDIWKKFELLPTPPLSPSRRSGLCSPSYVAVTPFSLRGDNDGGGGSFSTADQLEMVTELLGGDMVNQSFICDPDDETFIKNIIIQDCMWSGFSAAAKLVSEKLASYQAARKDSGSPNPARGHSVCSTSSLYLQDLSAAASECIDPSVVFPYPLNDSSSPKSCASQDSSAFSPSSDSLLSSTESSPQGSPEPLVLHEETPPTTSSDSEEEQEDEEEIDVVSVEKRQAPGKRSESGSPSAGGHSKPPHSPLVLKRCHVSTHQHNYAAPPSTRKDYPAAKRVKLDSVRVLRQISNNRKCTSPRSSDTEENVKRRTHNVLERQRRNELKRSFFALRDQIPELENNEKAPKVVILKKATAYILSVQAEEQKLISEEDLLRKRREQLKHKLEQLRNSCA
Experiment: MYC protein level in PC3 cells by western blot, 24 hr
Assay type: cell-based
Settings: PC-3, 24 h, PC3, 24 h, Actin control, read-out: Relative MYC protein at 10 μM (%, PC3 24 h)
MEASUREMENT_TYPE: remaining activity at 10 µM (%)

The following molecules have reported results that may help.
Cn1nc(C(F)(F)F)cc1-c1ccc(N(CCCOCCC(=O)NCCOCCOCCNc2ccc3c(c2)C(=O)N(C2CCC(=O)NC2=O)C3=O)C(=O)c2ccc(Cl)c(C(F)(F)F)c2)cc1O (centres unmarked) :: 18.4
Cn1nc(C(F)(F)F)cc1-c1ccc(N(CCCOCCC(=O)NCCCCNC(=O)COc2cccc3c2C(=O)N(C2CCC(=O)NC2=O)C3=O)C(=O)c2ccc(Cl)c(C(F)(F)F)c2)cc1O (centres unmarked) :: 105
Cn1nc(C(F)(F)F)cc1-c1cc2c(c(-c3ccc(Cl)c(C(F)(F)F)c3)c1O)CN(Cc1ccc(Cl)cc1)CC2 :: 41.8
Cc1ncsc1-c1ccc(CNC(=O)[C@@H]2C[C@@H](O)CN2C(=O)[C@@H](NC(=O)CCCCCCCCNC(=O)CCOCCCN(C(=O)c2ccc(Cl)c(C(F)(F)F)c2)c2ccc(-c3cc(C(F)(F)F)nn3C)c(O)c2)C(C)(C)C)cc1 :: 81.9
Cn1nc(C(F)(F)F)cc1-c1cc(C(F)(F)F)c(COc2ccc(Cl)cc2)c(-c2ccc(Cl)c(C(F)(F)F)c2)c1O :: 39.5

1. Cn1nc(C(F)(F)F)cc1-c1ccc(OCCCCCNC(=O)[C@H](CCCN=C(NC(=O)OC(C)(C)C)NC(=O)OC(C)(C)C)NC(=O)OC(C)(C)C)c(-c2ccc(Cl)c(C(F)(F)F)c2)c1O
2. Cn1nc(C(F)(F)F)cc1-c1ccc(N(CCCOCCC(=O)NCCOCCNc2cccc3c2C(=O)N(C2CCC(=O)NC2=O)C3=O)C(=O)c2ccc(Cl)c(C(F)(F)F)c2)cc1O (centres unmarked)
In terms of reported remaining activity at 10 µM, does 1 or 2 have the smaller number? Kindly give the label for the entry you pick.
2

A. Cn1nc(C(F)(F)F)cc1-c1ccc(-c2ccc(Cl)cc2)c(OCc2ccc(Cl)c(C(F)(F)F)c2)c1O
B. COCCCN(C(=O)c1ccc(C(F)(F)F)c(Cl)c1)c1ccc(-c2cc(C(F)(F)F)nn2C)c(O)c1
For the two items A and B , which reports the higher remaining activity at 10 µM value? Kindly give the label for the entry you pick.
A
